Just for reference, patent US20170355757A1 is where these values come from.

# System Under Test: human C5 (human, UniProt P01031 19-1676)
# Assay Details: cell-based or functional assay
Metric Name: Human AP % Max Inhibition, hemolysis assay, NHS (%)
Kindly answer with a numeric value in %, unit omitted.

Query: Recorded Human AP % Max Inhibition, hemolysis assay, NHS of H4H12161P (antibody, human IgG4, V domains shown, H4H: human IgG4 Fc with S108P hinge mutation) VH: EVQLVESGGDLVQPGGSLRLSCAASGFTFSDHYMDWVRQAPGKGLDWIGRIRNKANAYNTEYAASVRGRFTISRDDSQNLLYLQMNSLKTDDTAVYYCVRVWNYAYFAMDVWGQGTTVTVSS VL: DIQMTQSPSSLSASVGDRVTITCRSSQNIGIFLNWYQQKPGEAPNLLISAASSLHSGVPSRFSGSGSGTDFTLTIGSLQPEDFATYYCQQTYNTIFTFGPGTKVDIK , please.
Result: 56.1

Query: One more binder: H4H12169P (antibody, human IgG4, V domains shown, H4H: human IgG4 Fc with S108P hinge mutation) VH: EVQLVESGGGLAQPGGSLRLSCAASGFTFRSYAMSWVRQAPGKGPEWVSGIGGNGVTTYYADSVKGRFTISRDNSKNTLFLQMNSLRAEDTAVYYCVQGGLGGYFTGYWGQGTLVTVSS VL: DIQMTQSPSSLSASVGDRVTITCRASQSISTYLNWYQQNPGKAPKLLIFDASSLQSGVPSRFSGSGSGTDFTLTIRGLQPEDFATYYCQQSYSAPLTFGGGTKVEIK
Result: 44.5

Query: One more binder: H4H11683N (antibody, human IgG4, V domains shown, tested with H4H prefix (human IgG4 Fc with S108P hinge mutation); variable regions follow the numerical identifier; also called H2M11683N) VH: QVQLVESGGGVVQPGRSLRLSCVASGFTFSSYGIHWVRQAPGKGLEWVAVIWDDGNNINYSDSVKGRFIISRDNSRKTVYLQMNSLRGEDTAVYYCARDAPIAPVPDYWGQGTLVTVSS VL: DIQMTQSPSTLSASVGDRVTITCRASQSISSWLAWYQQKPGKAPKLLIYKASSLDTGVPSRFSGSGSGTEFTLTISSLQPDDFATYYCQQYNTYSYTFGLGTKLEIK
Result: 73.2

Query: One more binder: H4H12167P (antibody, human IgG4, V domains shown, H4H: human IgG4 Fc with S108P hinge mutation) VH: QVQLVESGGGLVKPGGSLRLSCAASGFTFSDSYMSWIRQAPGKGLEWISYIGSSGNTFYYADSVKGRFTISRDNANNLLYLQMTSLRAEDTAVYYCAREEGDFWSAVDSWGQGTLVTVSS VL: DIQLTQSPSFLSASVGDRVTITCWASQGISSYLAWYQQKPGKAPKLLIHTASTLQSGVPSRFSGSGSGTEFTLTISNLQPEDFATYYCQQLNSYPFTFGPGTKVDIK
Result: 64.8
